Sourced from paper PMC6662551

System: OATP1B1
Format: in vivo, human
Conditions: human, plasma, oral, C0, plasma, baseline; pravastatin + placebo; TC
VALUE KIND: C0 (nM)
Give just the numeric value; nM need not be written.

> print(dat)
                  structure  test.system  unit.name  result.value
1  O=C(O)CCCCCCCCCCCCC(=O)O      OATP1B1         nM          31.3

As a next step, examine the molecule that follows.
stdin: Param readout= C0; system= OATP1B1; entry= `O=C(O)CCCCCCCCCCCCCCC(=O)O` ; returns value.
stdout: 43.1

###

Settings: human, plasma, oral, 40 mg, AUC0→12, text; pravastatin + placebo; c.521‐TT; pravastatin peak only
VALUE KIND: AUC(0-t) (ng·h/mL)
Give just the numeric value; ng·h/mL need not be written.

stdin: Need AUC(0-t) of `CC[C@H](C)C(=O)O[C@H]1C[C@H](O)C=C2C=C[C@H](C)[C@H](CC[C@@H](O)C[C@@H](O)CC(=O)O)[C@H]21` , thanks.
stdout: 43

###

Settings: human, plasma, oral, CL/F, pravastatin + placebo; TT (N = 9)
VALUE KIND: CL/F (mL/min/kg)
Give just the numeric value; mL/min/kg need not be written.

stdin: Need CL/F of CC[C@H](C)C(=O)O[C@H]1C[C@H](O)C=C2C=C[C@H](C)[C@H](CC[C@@H](O)C[C@@H](O)CC(=O)O)[C@H]21 [pravastatin] , thanks.
stdout: 102

###

Conditions: human, plasma, oral, CL/F, pravastatin + placebo; all genotype
VALUE KIND: CL/F (mL/min/kg)
Give just the numeric value; mL/min/kg need not be written.

stdin: Need CL/F of `CC[C@H](C)C(=O)O[C@H]1C[C@H](O)C=C2C=C[C@H](C)[C@H](CC[C@@H](O)C[C@@H](O)CC(=O)O)[C@H]21` , thanks.
stdout: 86.2

###

Test system: OATP1B1
Format: in vivo, human
Conditions: human, plasma, oral, AUClast, 0.25-12 hour; pravastatin + placebo; TC (N = 6)
VALUE KIND: AUC(0-t) (µM·h)
Give just the numeric value; µM·h need not be written.

> print(dat)
                  structure  unit.name  result.value
1  O=C(O)CCCCCCCCCCCCC(=O)O       µM·h         0.386

As a next step, examine the compound that follows.
stdin: Need AUC(0-t) of `O=C(O)CCCCCCCCCCCCCCC(=O)O` , thanks.
stdout: 0.506

###

Conditions: human, plasma, oral, CL/F, pravastatin + cyclosporine; CC (N = 3)
VALUE KIND: CL/F (mL/min/kg)
Give just the numeric value; mL/min/kg need not be written.

stdin: Need CL/F of `CC[C@H](C)C(=O)O[C@H]1C[C@H](O)C=C2C=C[C@H](C)[C@H](CC[C@@H](O)C[C@@H](O)CC(=O)O)[C@H]21` , thanks.
stdout: 10.7

###

Assay type: in vivo, human
Conditions: pravastatin + placebo (N = 16)
VALUE KIND: Cmax (nM)
Give just the numeric value; nM need not be written.

> print(dat)
                                   compound  unit.name  result.value
1  O=C(O)CCCCCCCCCCCCCCC(=O)O [HDA, hexadecanedioic acid]         nM          90.6

As a next step, examine the compound that follows.
stdin: Need Cmax of O=C(O)CCCCCCCCCCCCC(=O)O [TDA, tetradecanedioic acid] , thanks.
stdout: 94.7
